Quick list: DC50 per entry.
Molecular target: SMARCA4 (Homo sapiens)
Sequence (P51532 whole entry): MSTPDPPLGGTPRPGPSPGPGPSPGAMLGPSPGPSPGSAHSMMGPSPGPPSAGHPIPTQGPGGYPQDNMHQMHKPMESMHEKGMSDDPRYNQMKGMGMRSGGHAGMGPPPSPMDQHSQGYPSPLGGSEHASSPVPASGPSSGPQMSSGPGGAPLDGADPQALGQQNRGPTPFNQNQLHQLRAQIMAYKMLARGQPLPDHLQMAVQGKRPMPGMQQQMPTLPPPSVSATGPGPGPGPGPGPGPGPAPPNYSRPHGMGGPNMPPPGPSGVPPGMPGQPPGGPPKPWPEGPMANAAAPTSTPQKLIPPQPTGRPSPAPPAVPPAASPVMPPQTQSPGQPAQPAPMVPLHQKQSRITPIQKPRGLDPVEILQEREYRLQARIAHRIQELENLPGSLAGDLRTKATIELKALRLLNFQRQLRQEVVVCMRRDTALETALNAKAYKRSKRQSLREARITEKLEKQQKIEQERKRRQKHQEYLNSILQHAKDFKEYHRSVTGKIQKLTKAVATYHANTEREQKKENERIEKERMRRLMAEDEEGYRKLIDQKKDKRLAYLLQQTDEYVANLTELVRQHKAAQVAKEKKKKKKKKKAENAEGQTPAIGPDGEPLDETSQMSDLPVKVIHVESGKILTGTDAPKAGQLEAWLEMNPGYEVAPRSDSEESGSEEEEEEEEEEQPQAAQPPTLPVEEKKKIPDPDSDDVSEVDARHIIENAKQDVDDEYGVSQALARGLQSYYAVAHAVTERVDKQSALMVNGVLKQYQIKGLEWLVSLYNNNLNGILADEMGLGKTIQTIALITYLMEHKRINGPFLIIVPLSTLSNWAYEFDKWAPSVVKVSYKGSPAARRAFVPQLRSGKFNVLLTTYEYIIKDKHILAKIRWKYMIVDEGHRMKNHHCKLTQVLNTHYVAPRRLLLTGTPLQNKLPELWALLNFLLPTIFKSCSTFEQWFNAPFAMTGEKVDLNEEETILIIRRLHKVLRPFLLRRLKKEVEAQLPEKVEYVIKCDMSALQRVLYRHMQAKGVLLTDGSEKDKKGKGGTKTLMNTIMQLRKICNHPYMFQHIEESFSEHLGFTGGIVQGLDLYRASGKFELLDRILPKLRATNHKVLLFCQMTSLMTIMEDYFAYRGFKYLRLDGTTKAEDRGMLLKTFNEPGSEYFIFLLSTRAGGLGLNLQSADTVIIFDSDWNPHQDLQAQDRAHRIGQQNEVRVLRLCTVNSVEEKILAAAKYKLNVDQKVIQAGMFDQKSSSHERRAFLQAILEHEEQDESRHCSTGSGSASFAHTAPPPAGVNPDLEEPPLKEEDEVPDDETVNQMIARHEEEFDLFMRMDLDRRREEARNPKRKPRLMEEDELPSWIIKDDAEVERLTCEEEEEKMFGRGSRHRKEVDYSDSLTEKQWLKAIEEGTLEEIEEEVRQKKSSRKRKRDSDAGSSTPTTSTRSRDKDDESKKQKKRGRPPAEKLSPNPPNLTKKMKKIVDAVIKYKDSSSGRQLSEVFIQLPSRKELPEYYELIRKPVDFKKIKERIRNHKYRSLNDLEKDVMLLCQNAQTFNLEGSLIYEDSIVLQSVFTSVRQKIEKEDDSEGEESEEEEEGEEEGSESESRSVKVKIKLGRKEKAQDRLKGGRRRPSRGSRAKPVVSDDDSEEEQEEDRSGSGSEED
Test: HiBiT assay for protein degradation, Hela SMARCA4-HiBiT cells (A series)
Format: cell-based
Set-up: fuse HiBiT to the carboxy terminus of SMARCA2 (Promega CS302365) or SMARCA4 (Promega CS3023225); host or cells: HeLa (CRISPR/Cas9 HiBiT knock-in)
Settings: Hela SMARCA4-HiBiT cells, 24 hours treatment; read-out: SMARC A4 Hela HiBit DC50

Solved entries:
Cc1ncsc1-c1ccc([C@H](CC(=O)N2CCC3(CCC(CN4CCC(c5ccc6c(c5)-n5c(nc(=O)c7c(Br)cccc75)C65CCCCC5)CC4)CC3)CC2)NC(=O)[C@@H]2C[C@@H](O)CN2C(=O)[C@@H](n2cc(C3CC3)nn2)C(C)(C)C)cc1 [Compound A142]
< 10 nM
Cc1ncsc1-c1ccc([C@H](CO)NC(=O)[C@@H]2C[C@@H](O)CN2C(=O)[C@H](C2CCCCC2)n2cc(-c3ccc(CN4CCC(c5ccc6c(c5)-n5c(nc(=O)c7c(Br)cccc75)C65CCCCC5)CC4)cc3)nn2)cc1 [Compound A129]
> 1000 nM

Would you kindly look at the next entry?
Sample Cc1ncsc1-c1ccc([C@H](CC(=O)N2CCC(N3CCC(c4ccc5c(c4)-n4c(nc(=O)c6c(Cl)cccc64)C54CCCCC4)CC3)CC2)NC(=O)[C@@H]2C[C@@H](O)CN2C(=O)[C@@H](n2cc(C3CC3)nn2)C(C)(C)C)cc1 [Compound A143] — what was its DC50?
100 to 1000 nM
